- Tested on: LXRb homodimer (NR concentration 270 nM)
- ASSAY_COMMENT: PBM binding z-score (relative to random genomic background probes); higher = stronger binding; sequences stand for … in GC…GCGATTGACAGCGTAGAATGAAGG
ASSAY_ENDPOINT: PBM binding z-score
Could you keep your reply to the number by itself?

// worked examples, PBM binding z-score included
sequence_code=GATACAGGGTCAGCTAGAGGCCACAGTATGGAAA test_result=-0.958
sequence_code=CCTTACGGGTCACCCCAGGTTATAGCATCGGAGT test_result=-0.027
sequence_code=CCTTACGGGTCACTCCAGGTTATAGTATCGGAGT test_result=0.0567

Consider now this further sequence.
q: Requested field: PBM binding z-score. Item: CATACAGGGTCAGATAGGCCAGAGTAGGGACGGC
a: 0.65
